Items are presented alongside their recorded COUNTS of radiolabeled gp120 retained.
Target system: HIV-1LAI envelope gp120 (Human immunodeficiency virus type 1 group M subtype B, UniProt P03377)
Type: binding
Condition info: Panel A, 21-mers of CD4; empty control 515 and 617
Reported endpoint: COUNTS of radiolabeled gp120 retained (counts)

>>> numeric_result("YKKEGEQVEFSFPLAFTVEKL")
735
>>> numeric_result("KEGEQVEFSFPLAFTVEKLTG")
972
>>> numeric_result("VVLAFQKASSIVYKKEGEQVE")
772
>>> numeric_result("EQVEFSFPLAFTVEKLTGSGE")
765
>>> numeric_result("FQKASSIVYKKEGEQVEFSFP")
9382
>>> numeric_result("GEQVEFSFPLAFTVEKLTGSG [human CD4 216-236]")
652
>>> numeric_result("KVEFKIDIVVLAFQKASSIVY")
635
>>> numeric_result("PLIIKLNKIEDSDTYICEVED")
20145
>>> numeric_result("VLAFQKASSIVYKKEGEQVEF")
1793
>>> numeric_result("SSIVYKKEGEQVEFSFPLAFT")
28068
>>> numeric_result("IVYKKEGEQVEFSFPLAFTVE")
15620
>>> numeric_result("VEFSFPLAFTVEKLTGSGELW")
633
>>> numeric_result("FPLAFTVEKLTGSGELWWQAE")
6276
>>> numeric_result("QKASSIVYKKEGEQVEFSFPL")
24959
>>> numeric_result("FKIDIVVLAFQKASSIVYKKE")
593
>>> numeric_result("KASSIVYKKEGEQVEFSFPLA [human CD4 206-226]")
30873
>>> numeric_result("PLAFTVEKLTGSGELWWQAER")
2647
>>> numeric_result("EGEQVEFSFPLAFTVEKLTGS")
739
>>> numeric_result("IDIVVLAFQKASSIVYKKEGE")
962
>>> numeric_result("SFPLAFTVEKLTGSGELWWQA")
2284
>>> numeric_result("IVVLAFQKASSIVYKKEGEQV")
646
>>> numeric_result("LAFQKASSIVYKKEGEQVEFS")
1410
>>> numeric_result("EFSFPLAFTVEKLTGSGELWW")
681

----------
Items are presented alongside their recorded COUNTS of radiolabeled gp120 retained.
Target system: HIV-1LAI envelope gp120 (Human immunodeficiency virus type 1 group M subtype B)
Format: binding
Condition info: Panel E, 9-mers and 12-mers of CD4; empty control 571
Reported endpoint: COUNTS of radiolabeled gp120 retained (counts)

>>> numeric_result("FPLAFTVEK")
569
>>> numeric_result("IDIVVLAFQ")
691
>>> numeric_result("GEQVEFSFP")
697
>>> numeric_result("AFTVEKLTGSGE")
511
>>> numeric_result("KIDIVVLAF")
665
>>> numeric_result("VYKKEGEQVEFS")
584
>>> numeric_result("KEGEQVEFS")
595
>>> numeric_result("TVEKLTGSG")
487
>>> numeric_result("NQKKVEFKI")
597
>>> numeric_result("KLTGSGELW")
491
>>> numeric_result("IVYKKEGEQ")
534
>>> numeric_result("VEFSFPLAF")
1064
>>> numeric_result("IVVLAFQKASSI")
548
>>> numeric_result("VEFKIDIVVLAF")
681
>>> numeric_result("QVEFSFPLA")
1205
>>> numeric_result("VEFSFPLAFTVE")
518
>>> numeric_result("SSIVYKKEG")
515
